tested.on: BpsCAγ
Construct: gene BpsCAgamma
Type: biochemical, Burkholderia pseudomallei
conditions: read-out: BpsCAγ
readout.label: Ki (µM)
All answers are understood in µM, so give the number only.

Give Ki (BpsCAγ) of the following compound: `N=C(N)SCc1cnc(-c2ccc(S(N)(=O)=O)cc2)[se]1` 6.55

---

tested.on: BpsCAγ
Construct: gene BpsCAgamma
Type: biochemical, Burkholderia pseudomallei
conditions: read-out: VchCAγ
readout.label: Ki (µM)
I only need the number, in µM, no unit after it.

Form field: reported Ki of `Cc1ccc([Te]Cc2cnc(-c3ccc(S(N)(=O)=O)cc3)[se]2)cc1` 7.6

Look at this molecule and give its reported Ki. `NS(=O)(=O)c1ccc(-c2ncc(C[Te]c3ccccc3)[se]2)cc1` 8.9
